Can you tell me normalized growth for the items I'm about to list?
- Measurement protocol: chemical genetic growth profiling, strain panel (AID 1159580);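 note: tested at 20 µM; growth read once vehicle control cultures reached saturation at 30 °C; 1 = growth at the plate median or of vehicle wells; lower values mean less growth of the strain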
- Condition set: S. cerevisiae deletion strains, growth OD, locus YLR262C, strain YPT6, stronger effect = lower value
The campaign covered roughly 5,500 compounds. About 2,000 (36%) were called active. Inconclusive results (about 18%) are left out. This is one part of the list.
One number for each entry.

Consider the compound C[C@]12CCC3C(CC[C@H]4C[C@@H](O)CC[C@]34C)C1CCC2=O (some centres not stated) and give its measured normalized growth.
0.413

Batch of 3 compounds: report normalized growth for each.
1. COc1ccc(/C(C)=N\NC2=NCCCN2)cc1
2. CCS(=O)(=O)CCn1c([N+](=O)[O-])cnc1C
3. CCOC(=N)c1ccc(F)c(Cl)c1

[0.978, 1.1, 1.06]

====

- Measurement protocol: chemical genetic growth profiling, strain panel (AID 1159580);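 note: tested at 20 µM; growth read once vehicle control cultures reached saturation at 30 °C; 1 = growth at the plate median or of vehicle wells; lower values mean less growth of the strain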
- Condition set: S. cerevisiae deletion strains, growth OD, locus YLR221C, strain rsa3, stronger effect = lower value
The whole screen tested about 5,500 compounds, of which about 2,000 (36%) were called active. Not shown: some 18% with an inconclusive outcome. This is one part of the list.
Readout type: normalized growth
Answers are plain numbers.

Consider the molecule CC1(C)C[C@@H]2C(=O)CC[C@H]3O[C@]3(C)CC[C@H]21 and give its measured normalized growth.
1.04

Consider the molecule CC(=O)Oc1ccc2c(c1)CCC1C2CCC2(C)C1CC(OC(C)=O)C2OC(C)=O (stereo not given) and give its measured normalized growth.
0.978

Consider the molecule CCOc1ccc(Cc2nccc3cc(OCC)c(OCC)cc23)cc1OCC and give its measured normalized growth.
0.982

Consider the molecule COc1c2occc2cc2ccc(=O)oc12 and give its measured normalized growth.
0.891

Consider the molecule COc1cc(OC)c2c(=O)c(-c3ccc4c(c3)OCO4)coc2c1 and give its measured normalized growth.
0.961

Consider the molecule c1ccc2c(c1)[nH]c1cnccc12 and give its measured normalized growth.
1

Consider the molecule O=c1ccc2ccc(O)c(O)c2o1 and give its measured normalized growth.
0.991

Consider the molecule CC1(C)C=Cc2c(cc3occ(-c4ccc5c(c4)OCO5)c(=O)c3c2O)O1 and give its measured normalized growth.
0.897

Batch of 2 molecules: report normalized growth for each.
1. COc1ccc2c(=O)c(-c3cc4c(cc3OC)OCO4)coc2c1
2. O=C1c2ccccc2C(=O)c2c(O)c(O)cc(O)c21

1: 1; 2: 0.414

Batch of 7 molecules: report normalized growth for each.
1. Nc1ncnc2nc[nH]c12
2. COc1cc(OC)c(C(C)=O)c(O)c1C
3. Nc1ncnc2c1ncn2[C@@H]1O[C@H](CO)[C@@H](O)[C@@H]1O
4. C[C@]12C=CC(=O)C=C1CCC1C2C(=O)C[C@@]2(C)C1CC[C@]2(O)C(=O)CO (stereo not given in full)
5. C[C@]12CCC3c4ccc(O)cc4CCC3C1CC[C@@H]2OC(=O)CCC1CCCC1 (stereo not given in full)
6. CC(=O)O[C@@H]1CC2C(C)(C)[C@H](O)C[C@H](O)[C@]2(C)C2CC[C@@]3(C)C(=CC(=O)O[C@H]3c3ccoc3)[C@@]21C (stereo not given in full)
7. CC(C)(O)CC[C@@H](O)[C@](C)(O)C1CC[C@@]2(O)C3=CC(=O)C4C[C@@H](O)[C@@H](O)C[C@]4(C)C3CC[C@]12C (stereo not given in full)

1: 0.964; 2: 0.884; 3: 1.01; 4: 1.01; 5: 1.02; 6: 1.03; 7: 0.996

Batch of 2 molecules: report normalized growth for each.
1. O=C1c2ccccc2-c2cccc3cccc1c23
2. O=c1c(-c2ccc3c(c2)OCO3)coc2cc(O)ccc12

1. 0.875
2. 0.994

Batch of 4 molecules: report normalized growth for each.
1. C[C@]12CCC3C(CC[C@H]4CC(=O)CC[C@]34C)C1CCC2=O (stereo not given in full)
2. CSCCC(NC=O)C(=O)NC(CC(C)C)C(=O)NC(Cc1ccccc1)C(=O)O (stereo not given)
3. CC(C)=CCc1c(O)cc2occ(-c3ccc4c(c3)OCO4)c(=O)c2c1O
4. CN1CCN(C(c2ccccc2)c2ccccc2)CC1

1: 0.796; 2: 0.998; 3: 0.865; 4: 1.02
